ASSAY TARGET: ErbB-3 receptor-Ig fusion (human, UniProt P21860 20-643; P21860 20-636)
Sequence (P21860 other isoform, or with tags, fused parts or gaps): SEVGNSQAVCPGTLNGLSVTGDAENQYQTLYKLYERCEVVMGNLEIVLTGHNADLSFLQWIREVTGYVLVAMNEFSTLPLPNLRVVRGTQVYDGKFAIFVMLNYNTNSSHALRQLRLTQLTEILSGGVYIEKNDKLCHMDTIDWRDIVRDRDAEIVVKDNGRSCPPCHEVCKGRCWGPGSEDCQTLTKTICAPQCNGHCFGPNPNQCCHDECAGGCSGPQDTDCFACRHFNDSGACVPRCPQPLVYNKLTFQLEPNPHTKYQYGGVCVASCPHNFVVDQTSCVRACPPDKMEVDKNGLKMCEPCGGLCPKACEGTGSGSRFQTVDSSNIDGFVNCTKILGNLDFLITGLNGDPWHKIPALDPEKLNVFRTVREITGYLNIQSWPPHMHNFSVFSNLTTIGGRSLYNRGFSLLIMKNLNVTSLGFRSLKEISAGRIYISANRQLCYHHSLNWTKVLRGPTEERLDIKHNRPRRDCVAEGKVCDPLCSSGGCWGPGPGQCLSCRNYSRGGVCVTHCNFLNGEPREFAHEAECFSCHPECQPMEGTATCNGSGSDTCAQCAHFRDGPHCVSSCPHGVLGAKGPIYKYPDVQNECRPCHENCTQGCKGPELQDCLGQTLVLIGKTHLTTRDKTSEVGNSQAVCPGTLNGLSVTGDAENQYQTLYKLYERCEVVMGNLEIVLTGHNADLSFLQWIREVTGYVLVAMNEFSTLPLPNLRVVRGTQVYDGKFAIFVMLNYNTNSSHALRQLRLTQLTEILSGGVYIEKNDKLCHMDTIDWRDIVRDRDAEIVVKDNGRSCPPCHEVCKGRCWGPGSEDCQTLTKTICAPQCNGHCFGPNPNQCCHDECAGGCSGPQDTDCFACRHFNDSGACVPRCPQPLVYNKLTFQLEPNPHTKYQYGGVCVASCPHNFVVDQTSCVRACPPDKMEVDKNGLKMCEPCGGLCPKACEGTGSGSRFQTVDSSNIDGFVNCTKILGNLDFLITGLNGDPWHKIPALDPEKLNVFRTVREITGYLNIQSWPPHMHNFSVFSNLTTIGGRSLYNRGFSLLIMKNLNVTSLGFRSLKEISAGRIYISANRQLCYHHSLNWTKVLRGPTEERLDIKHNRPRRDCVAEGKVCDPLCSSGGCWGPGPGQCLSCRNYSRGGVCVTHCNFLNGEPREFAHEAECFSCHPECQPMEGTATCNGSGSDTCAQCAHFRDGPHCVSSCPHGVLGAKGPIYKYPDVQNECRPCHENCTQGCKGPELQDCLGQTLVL
METHOD DESCRIPTION: phage ELISA, competition with soluble ErbB-3-Ig; against HRG8
Ends that are not written are not given here.
METRIC NAME: EC50 (wt)/EC50 (mut)

What value of EC50 (wt)/EC50 (mut) has been reported for the following binder? SHLVKCAEKEKTFCVNGGECFMVKDTKYRGCKCPNEFTGDRCQNYVMAS-{(GGGS)3-M13 pIII C‑terminal fragment from residue 323} (ligand, not shown: large carriers; small tags and cut ends, ends and bridges not checked, monovalent phage display; library E carries the 202-204 deletion) [HRG-β1 EGF variant E8 displayed on phage]
17 ratio

What value of EC50 (wt)/EC50 (mut) has been reported for the following binder? HRG-β1 EGF variant I1 displayed on phage (ligand, human, not shown: large carriers, monovalent phage display, pHRG8-g3 background) SHLVKCAEKEKTFCVNGGECFMVKDLSNPSRYLCKCPNEFTGDRCQWYVIASGGGSGGGSGGGS
13 ratio

What value of EC50 (wt)/EC50 (mut) has been reported for the following binder? HRG-β1 EGF variant G1 displayed on phage (ligand, not shown: large carriers; small tags and cut ends, ends and bridges not checked, monovalent phage display, pHRG8-g3 background) SHLVKCAEKEKTFCVNGGECFMVKDLSNPSRYLCRCSLEFTGDRCQNYVMAS-{(GGGS)3-M13 pIII C‑terminal fragment from residue 323}
1.2 ratio

What value of EC50 (wt)/EC50 (mut) has been reported for the following binder? HRG-β1 EGF variant I2 displayed on phage (ligand, human, not shown: large carriers, monovalent phage display, pHRG8-g3 background) SHLVKCAEKEKTFCVNGGECFMVKDLSNPSRYLCKCPNEFTGDRCQHYVIASGGGSGGGSGGGS
20 ratio
